ASSAY TARGET: PIM1 (human) (UniProt P11309)
Sequence (P11309 whole entry, looked up): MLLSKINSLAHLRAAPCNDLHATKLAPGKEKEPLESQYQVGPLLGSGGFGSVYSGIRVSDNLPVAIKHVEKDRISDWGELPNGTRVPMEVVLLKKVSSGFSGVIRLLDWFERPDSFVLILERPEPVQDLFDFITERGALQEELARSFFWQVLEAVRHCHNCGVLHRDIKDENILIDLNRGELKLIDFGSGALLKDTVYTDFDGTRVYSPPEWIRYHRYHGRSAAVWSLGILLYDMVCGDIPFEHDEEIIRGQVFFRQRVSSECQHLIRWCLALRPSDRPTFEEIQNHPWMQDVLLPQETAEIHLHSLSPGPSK
ASSAY NOTES: radiometric filter-binding kinase assay
RUN PARAMETERS: compound 0.01 µM
OBSERVABLE: residual activity
Value and unit, in that order.

The molecule identified as CNC(=O)C1[C@H]2O[C@@](C)([C@@H]1N)n1c3ccccc3c3c4c(c5c6ccccc6n2c5c31)C(=O)NC4 (stereo partly specified) registered its residual activity at 71%

The molecule identified as `CNc1nc(-c2ccc3c(N)n[nH]c3c2)cc(N2C[C@@H](C(=O)NC3CCCCC3)CC[C@H]2C)n1` registered its residual activity at 99%

The molecule identified as COc1cc(O)c2c(c1)[C@H]1OC1C[C@H](O)[C@H](O)C(=O)/C=C\C[C@H](C)OC2=O (stereo partly specified) registered its residual activity at 90%

The molecule identified as `C/C(=C1/C(=O)Nc2ccc(NC(N)=O)cc21)c1ccc[nH]1` registered its residual activity at 98%

The molecule identified as `O=C(Nc1nc2cc(C(F)(F)F)cc(NC3CC3)n2n1)c1cccnc1` registered its residual activity at 104%

The molecule identified as `COc1ccc(N(C(=O)Nc2c(C)cccc2C)c2cc(Nc3ccc(N4CCN(C)CC4)cc3)ncn2)c(OC)c1` registered its residual activity at 107%

Origin of the recorded values: the kinase profiling compilation of Christmann-Franck et al. (2016)
